# Experimental Protocol: Cellular Toxicity (caspase-3) BJ (AID 658);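 note: cells exposed to compound for 16 hours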
# Particulars: BJ fibroblasts, luminescence, normalized: DMSO 0%, staurosporine 100%; series mostly up to 91.7 µM
The source made the active and inactive calls. Calls come from the whole dose curve; as a rule, active = well fitted curve in the direction sought with a large enough effect; inconclusive = small, poorly fitted or top-dose-only effect, or another doubt; inactive = no such curve, though single readings can be large or run the other way.
Readout: outcome

Molecule	Result
O=[N+]([O-])c1c(Cl)c(Cl)cc(Cl)c1Cl	inactive
O=[N+]([O-])c1cc([N+](=O)[O-])c2ccccc2c1	inactive
O=C(O)C(Cl)Cl	inactive
CCCCC(CC)COC(=O)c1ccccc1C(=O)OCC(CC)CCCC (stereo not given)	inactive
CCOCCOC(C)=O	inactive
CCCCCCCCc1ccc(O)cc1	inactive
C=CC(=O)NCNC(=O)C=C	inactive
CC(=O)[O][Hg][c]1ccccc1	inactive
CN(C)[C@@H]1C(=O)C(C(N)=O)=C(O)[C@@]2(O)C(=O)C3=C(O)c4c(O)cccc4[C@@](C)(O)[C@H]3[C@H](O)[C@@H]12	inactive
Nc1ccc(Cl)cc1N	inactive
